pIC50 reference
Tested Target: CDK6 protein kinase (GST-CDK6(1-326 end)) (Homo sapiens)
pIC50: −log10 of the molar value.

[in] Can you share its pIC50? I mean this compound: O=C1N(C2CCCC2)c2nc(Nc3ccc(N4CCNCC4)cn3)ncc2OC1(F)F [Compound I-12]
[out] 7.00 to 7.70

[in] Look up pIC50: CCN1CCN(Cc2ccc(Nc3ncc4c(n3)N(C3CCCC3)C(=O)C(C3CCC3)O4)nc2)CC1 (stereo not drawn) [Compound I-14]
[out] ≥ 7.70

[in] Consider the compound shown here: CCN1CCN(Cc2ccc(Nc3ncc4c(n3)N(C)C(=O)C(C(C)C)O4)nc2)CC1 (stereo not drawn) [Compound I-15] What is its recorded pIC50?
[out] 7.00 to 7.70

[in] Param item = CC1(C)Oc2cnc(Nc3ccc(N4CCNCC4)cn3)nc2N(c2cccs2)C1=O [Compound I-29] ; retrieve measured pIC50.
[out] ≥ 7.70

[in] Value lookup for pIC50; key = CC(C)N1CCN(c2ccc(Nc3ncc4c(n3)N(C3CCCC3)C(=O)C(C)(C)S4)nc2)CC1 [Compound I-24]
[out] ≥ 7.70

[in] Please report the recorded pIC50 for CC(=O)C1Oc2cnc(Nc3ccc(N4CCNCC4)cn3)nc2N(C2CCCC2)C1=O (stereo not drawn) [Compound I-9] .
[out] 7.00 to 7.70

[in] pIC50 for CCCN1CCN(Cc2ccc(Nc3ncc4c(n3)N(C(C)C(C)C)C(=O)C(C3CCCCCC3)S4)nc2)CC1 (stereo not drawn) [Compound I-19] ?
[out] 7.00 to 7.70

[in] For CCN1CCN(Cc2ccc(Nc3ncc4c(n3)N(c3ncccn3)C(=O)C(C)(C)O4)nc2)CC1 [Compound I-31] , what is its reported pIC50?
[out] ≥ 7.70

[in] Return reported pIC50; argument: O=C1N(C2CCCC2)c2nc(Nc3ccc(N4CCNCC4)cn3)ncc2OC12CCC2 [Compound I-5]
[out] 7.00 to 7.70

[in] Entry under review: O=C1N(C2CCCC2)c2nc(Nc3ccc(N4CCNCC4)cn3)ncc2OC12CCCCC2 [Compound I-7] . Reported pIC50?
[out] ≥ 7.70

----------
The compounds below have reported IC50 for CDK4 protein kinase (GST-CDK4(1-303 end)) (Homo sapiens, UniProt P11802).

See these solved cases before continuing.
NC(=O)C1Oc2cnc(Nc3ccc(N4CCNCC4)cn3)nc2N(C2CCCC2)C1=O (centres unmarked) [Compound I-34]: ≤ 20 nM
CCN1CCN(Cc2ccc(Nc3ncc4c(n3)N(C3CCCC3)C(=O)C(C#N)O4)nc2)CC1 (centres unmarked) [Compound I-27]: ≤ 20 nM
CCN1CCN(Cc2ccc(Nc3ncc4c(n3)N(c3ccccn3)C(=O)C(C)(C)O4)nc2)CC1 [Compound I-30]: ≤ 20 nM
CC1(C)Oc2cnc(Nc3ccc(N4CCNCC4)cn3)nc2N(c2cccs2)C1=O [Compound I-29]: ≤ 20 nM
CC(C)N1C(=O)C(C)(C)Oc2cnc(Nc3ccc(N4CCNCC4)cn3)nc21 [Compound I-1]: ≤ 20 nM

[in] What is its IC50 for CDK4 protein kinase (GST-CDK4(1-303 end)) (Homo sapiens, UniProt P11802)? Entry: CC1(C)Oc2cnc(Nc3ccc(N4CCNCC4)cn3)nc2N(c2ccc(Cl)cc2)C1=O [Compound I-36]
[out] ≤ 20 nM

[in] API: value(readout=IC50, system=CDK4 protein kinase (GST-CDK4(1-303 end)) (Homo sapiens, UniProt P11802)) for record O=C1N(C2CCCC2)c2nc(Nc3ccc(N4CCNCC4)cn3)ncc2OC12CCCCCC2 [Compound I-8]
[out] ≤ 20 nM

[in] Observed IC50 on CDK4 protein kinase (GST-CDK4(1-303 end)) (Homo sapiens, UniProt P11802) for CCC(CC)N1C(=O)C(C)(C)Oc2cnc(Nc3ccc(CN4CCN(CC)CC4)cn3)nc21 [Compound I-38] , please.
Sequence (P11802 whole entry, one chain of several): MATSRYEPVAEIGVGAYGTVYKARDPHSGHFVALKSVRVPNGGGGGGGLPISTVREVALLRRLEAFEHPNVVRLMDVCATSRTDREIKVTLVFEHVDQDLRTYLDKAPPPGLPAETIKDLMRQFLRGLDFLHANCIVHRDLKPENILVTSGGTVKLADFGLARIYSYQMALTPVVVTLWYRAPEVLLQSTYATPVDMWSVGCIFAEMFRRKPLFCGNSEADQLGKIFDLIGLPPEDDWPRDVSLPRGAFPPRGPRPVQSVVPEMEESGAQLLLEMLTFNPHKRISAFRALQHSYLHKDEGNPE
[out] ≤ 20 nM

----------
Each item that follows carries a reported IC50.
Tested Target: CDK6 protein kinase (GST-CDK6(1-326 end)) (Homo sapiens, UniProt Q00534)
Sequence (Q00534 whole entry): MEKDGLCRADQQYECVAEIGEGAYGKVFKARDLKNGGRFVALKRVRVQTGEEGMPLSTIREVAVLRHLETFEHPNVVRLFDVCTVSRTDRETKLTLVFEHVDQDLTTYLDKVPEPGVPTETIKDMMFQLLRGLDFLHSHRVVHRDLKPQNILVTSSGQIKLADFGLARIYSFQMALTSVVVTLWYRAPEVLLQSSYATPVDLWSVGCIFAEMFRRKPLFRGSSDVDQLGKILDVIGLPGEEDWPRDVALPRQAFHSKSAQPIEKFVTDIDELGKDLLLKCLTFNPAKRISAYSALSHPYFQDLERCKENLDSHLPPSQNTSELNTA
Sequence (P30281 whole entry partner): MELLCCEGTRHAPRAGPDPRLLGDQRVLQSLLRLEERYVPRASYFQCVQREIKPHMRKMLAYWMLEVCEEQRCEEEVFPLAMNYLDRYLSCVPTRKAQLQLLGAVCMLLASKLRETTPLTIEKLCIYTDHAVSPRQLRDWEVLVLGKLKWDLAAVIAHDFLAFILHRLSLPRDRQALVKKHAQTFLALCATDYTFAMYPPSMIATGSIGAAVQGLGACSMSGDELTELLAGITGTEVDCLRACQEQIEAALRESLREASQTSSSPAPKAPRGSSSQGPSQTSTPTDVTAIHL

For orientation, consider the following solved cases.
O=C1N(C2CCCC2)c2nc(Nc3ccc(N4CCNCC4)cn3)ncc2OC12CC2 [Compound I-4]: 20 to 100 nM
CCN1CCN(Cc2ccc(Nc3ncc4c(n3)N(c3ccccn3)C(=O)C(C)(C)O4)nc2)CC1 [Compound I-30]: 20 to 100 nM
O=C1N(C2CCCC2)c2nc(Nc3ccc(N4CCNCC4)cn3)ncc2OC12CCCC2 [Compound I-6]: 20 to 100 nM

Please examine the following record next.
[in] Request the reported IC50 associated with O=C1C(C(F)(F)F)Oc2cnc(Nc3ccc(N4CCNCC4)cn3)nc2N1C1CCCC1 (centres unmarked) [Compound I-11]
[out] 20 to 100 nM

----------
Tested Target: CDK6 protein kinase (GST-CDK6(1-326 end)) (Homo sapiens, UniProt Q00534)
Construct: GST-CDK6(1-326 end); GST (N)
Protocol Summary: CDK6 protein kinase activity, Caliper mobility shift assay
Format: biochemical
Experimental Setup: substrate Peptide FAM-P8, 28° C. for 3 h
pIC50: −log10 of the molar value.
Measured Endpoint: pIC50

Study these solved cases before continuing.
CC1(C)Oc2cnc(Nc3ccc(N4CCN(C5CCCC5)CC4)cn3)nc2N(C2CCCC2)C1=O [Compound I-21]: 7.00 to 7.70
CC1(C)Oc2cnc(Nc3ccc(N4CCN(C5CCCCC5)CC4)cn3)nc2N(C2CCCC2)C1=O [Compound I-22]: ≥ 7.70
CCN1CCN(Cc2ccc(Nc3ncc4c(n3)N(C3CCCC3)C(=O)C(C)(C)O4)nc2)CC1 [Compound I-3]: ≥ 7.70

Here is the next item to consider.
[in] What value of pIC50 has been reported for the following compound? CCC(C)(C)N1C(=O)C(C2CCCCC2)Oc2cnc(Nc3ccc(CN4CCN(C5CC5)CC4)cn3)nc21 (stereo not shown) [Compound I-18]
[out] ≥ 7.70

These measurements were taken from patent US10351578B2.
